test system: Mycolicibacterium smegmatis; test: Bactericidal activity against Mycobacterium smegmatis ATCC 607 incubated for 48 hrs under aerobic condition by MABA; type: functional; details: ATCC 607, 48 h
# MBC listing for each entry below
Measure: MBC (µg/mL)

1. CC[C@]1(C)C[C@@H](OC(=O)CSC(C)(C)CNC(=O)[C@H](N)CC(C)C)[C@]2(C)[C@H](C)CC[C@]3(CCC(=O)[C@H]32)[C@@H](C)[C@@H]1O    25
2. CC[C@]1(C)C[C@@H](OC(=O)CSC(C)(C)CNC(=O)[C@H](N)CC(C)C)[C@]2(C)[C@H](C)CC[C@]3(CC[C@@H](O)[C@H]32)[C@@H](C)[C@@H]1O    25
3. CC(=O)NC[C@H]1CN(c2ccc(N3CCOCC3)c(F)c2)C(=O)O1 [LINEZOLID]    0.8

====

# MBC listing for each entry below
test system: Mycolicibacterium smegmatis; experiment: Bactericidal activity against Mycobacterium smegmatis ATCC 607 incubated for 48 hrs under aerobic condition by MABA; assay type: functional; conditions: ATCC 607, 48 h
Measure: MBC

1) C=C[C@]1(C)C[C@@H](OC(=O)CSC(C)(C)CNC(=O)[C@H](N)C(C)C)[C@]2(C)[C@H](C)CC[C@]3(CCC(=O)[C@H]32)[C@@H](C)[C@@H]1O    25 µg/mL
2) CO[C@H]1/C=C/O[C@@]2(C)Oc3c(C)c(O)c4c(O)c(c(/C=N/N5CCN(C)CC5)c(O)c4c3C2=O)NC(=O)/C(C)=C\C=C\[C@H](C)[C@H](O)[C@@H](C)[C@@H](O)[C@@H](C)[C@H](OC(C)=O)[C@@H]1C    > 25 µg/mL
3) C=C[C@]1(C)C[C@@H](OC(=O)CSC(C)(C)CNC(=O)[C@H](N)CC(C)C)[C@]2(C)[C@H](C)CC[C@]3(CCC(=O)[C@H]32)[C@@H](C)[C@@H]1O    > 25 µg/mL

====

test system: Enterococcus faecalis; test: Antibacterial activity against Enterococcus faecalis ATCC 19433 incubated for 24 hrs under aerobic condition by MABA; assay type: functional; settings: ATCC 19433, 24 h, read-out: MIC100
# MIC listing for each entry below
Measure: MIC (µg/mL)

1) CC[C@]1(C)C[C@@H](OC(=O)CSC(C)(C)CNC(=O)[C@H](N)CC(C)C)[C@]2(C)[C@H](C)CC[C@]3(CC[C@@H](O)[C@H]32)[C@@H](C)[C@@H]1O    6.25
2) C=C[C@]1(C)C[C@@H](OC(=O)CSC(C)(C)CNC(=O)[C@H](N)C(C)C)[C@]2(C)[C@H](C)CC[C@]3(CCC(=O)[C@H]32)[C@@H](C)[C@@H]1O [VALNEMULIN]    6.25
3) C=C[C@]1(C)C[C@@H](OC(=O)CSC(C)(C)CNC(=O)[C@H](N)CC(C)C)[C@]2(C)[C@H](C)CC[C@]3(CCC(=O)[C@H]32)[C@@H](C)[C@@H]1O    12.5
4) CC(=O)NC[C@H]1CN(c2ccc(N3CCOCC3)c(F)c2)C(=O)O1 [LINEZOLID]    12.5
5) CO[C@H]1/C=C/O[C@@]2(C)Oc3c(C)c(O)c4c(O)c(c(/C=N/N5CCN(C)CC5)c(O)c4c3C2=O)NC(=O)/C(C)=C\C=C\[C@H](C)[C@H](O)[C@@H](C)[C@@H](O)[C@@H](C)[C@H](OC(C)=O)[C@@H]1C [RIFAMPIN]    0.78
6) CC[C@]1(C)C[C@@H](OC(=O)CSC(C)(C)CNC(=O)[C@H](N)CC(C)C)[C@]2(C)[C@H](C)CC[C@]3(CCC(=O)[C@H]32)[C@@H](C)[C@@H]1O    12.5

====

system: Escherichia coli; test: Inhibition of protein translation/transcription in Escherichia coli S30 cell extract at 0.1 ug/ml using circular DNA with pBESTluc after 60 mins by luciferase reporter gene assay; format: functional
Activity calls are given as the source filed them. The rule behind the calls is not given here.
Measure: inhibition

1. C=C[C@]1(C)C[C@@H](OC(=O)CSC(C)(C)CNC(=O)[C@H](N)CC(C)C)[C@]2(C)[C@H](C)CC[C@]3(CC[C@@H](O)[C@H]32)[C@@H](C)[C@@H]1O    Active
2. C=C[C@]1(C)C[C@@H](OC(=O)CSC(C)(C)CNC(=O)[C@H](N)C(C)C)[C@]2(C)[C@H](C)CC[C@]3(CCC(=O)[C@H]32)[C@@H](C)[C@@H]1O    Active
3. CC[C@]1(C)C[C@@H](OC(=O)CSC(C)(C)CNC(=O)[C@H](N)CC(C)C)[C@]2(C)[C@H](C)CC[C@]3(CC[C@@H](O)[C@H]32)[C@@H](C)[C@@H]1O    Active

====

system: Enterococcus faecalis; assay: Antibacterial activity against Enterococcus faecalis ATCC 349 incubated for 24 hrs under aerobic condition by MABA; assay type: functional; details: ATCC 349, 24 h, read-out: MIC100
Measure: MIC

1. C=C[C@]1(C)C[C@@H](OC(=O)CSC(C)(C)CNC(=O)[C@H](N)C(C)C)[C@]2(C)[C@H](C)CC[C@]3(CCC(=O)[C@H]32)[C@@H](C)[C@@H]1O [VALNEMULIN]    > 25 µg/mL
2. CC[C@]1(C)C[C@@H](OC(=O)CSC(C)(C)CNC(=O)[C@H](N)CC(C)C)[C@]2(C)[C@H](C)CC[C@]3(CCC(=O)[C@H]32)[C@@H](C)[C@@H]1O    > 25 µg/mL
3. CO[C@H]1/C=C/O[C@@]2(C)Oc3c(C)c(O)c4c(O)c(c(/C=N/N5CCN(C)CC5)c(O)c4c3C2=O)NC(=O)/C(C)=C\C=C\[C@H](C)[C@H](O)[C@@H](C)[C@@H](O)[C@@H](C)[C@H](OC(C)=O)[C@@H]1C [RIFAMPIN]    > 25 µg/mL

====

test system: Escherichia coli; assay: Inhibition of protein translation/transcription in Escherichia coli S30 cell extract at 0.1 ug/ml using circular DNA with pBESTluc after 60 mins by luciferase reporter gene assay; assay type: functional
Active and inactive are the calls of the source. The rule behind the calls is not given here.
Measure: inhibition

1) CC[C@]1(C)C[C@@H](OC(=O)CSC(C)(C)CNC(=O)[C@H](N)CC(C)C)[C@]2(C)[C@H](C)CC[C@]3(CCC(=O)[C@H]32)[C@@H](C)[C@@H]1O    Active
2) CC(=O)NC[C@H]1CN(c2ccc(N3CCOCC3)c(F)c2)C(=O)O1    Active
3) C=C[C@]1(C)C[C@@H](OC(=O)CSC(C)(C)CNC(=O)[C@H](N)CC(C)C)[C@]2(C)[C@H](C)CC[C@]3(CCC(=O)[C@H]32)[C@@H](C)[C@@H]1O    Active

====

assay: Selectivity index, ratio of IC50 for African green monkey Vero cells to MIC100 for replicating Mycobacterium tuberculosis H37Rv by MABA; format: toxicity; conditions: read-out: Selectivity Index
# selectivity ratio listing for each entry below
Measure: selectivity ratio

1. CC[C@]1(C)C[C@@H](OC(=O)CSC(C)(C)CNC(=O)[C@H](N)CC(C)C)[C@]2(C)[C@H](C)CC[C@]3(CCC(=O)[C@H]32)[C@@H](C)[C@@H]1O    32
2. C=C[C@]1(C)C[C@@H](OC(=O)CSC(C)(C)CNC(=O)[C@H](N)CC(C)C)[C@]2(C)[C@H](C)CC[C@]3(CCC(=O)[C@H]32)[C@@H](C)[C@@H]1O    16
3. C=C[C@]1(C)C[C@@H](OC(=O)CSC(C)(C)CNC(=O)[C@H](N)CC(C)C)[C@]2(C)[C@H](C)CC[C@]3(CC[C@@H](O)[C@H]32)[C@@H](C)[C@@H]1O    11.4
4. C=C[C@]1(C)C[C@@H](OC(=O)CSC(C)(C)CNC(=O)[C@H](N)C(C)C)[C@]2(C)[C@H](C)CC[C@]3(CCC(=O)[C@H]32)[C@@H](C)[C@@H]1O    4.79

====

test: Cmax in Balb/c mouse serum at 30 mg/kg, po; type: ADME, organism-based; parameters: dose 30 mg/kg, route oral
Measure: Cmax (ng/mL)

1. CC[C@]1(C)C[C@@H](OC(=O)CSC(C)(C)CNC(=O)[C@H](N)CC(C)C)[C@]2(C)[C@H](C)CC[C@]3(CC[C@@H](O)[C@H]32)[C@@H](C)[C@@H]1O    2960

====

assay: Cmax in Balb/c mouse at 3 mg/kg, iv; format: ADME, organism-based; design: dose 3 mg/kg, route intravenous; conditions: in vivo
Measure: Cmax

1. CC[C@]1(C)C[C@@H](OC(=O)CSC(C)(C)CNC(=O)[C@H](N)CC(C)C)[C@]2(C)[C@H](C)CC[C@]3(CC[C@@H](O)[C@H]32)[C@@H](C)[C@@H]1O    1910 ng/mL
